# assay-procedure: Example 4 Group A: plasma pharmacokinetics in healthy volunteers (LC/MS/MS)
# conditions: human, in vivo, 25 mg, 25 mg single dose, fasted, median, read-out: Tmax of Compound I
attribute-measured: Tmax

Entry under review: CC(C)OC(=O)[C@@H](C)N[P@@](=O)(OC[C@H]1O[C@@H](n2ccc(=O)[nH]c2=O)[C@](C)(Cl)[C@@H]1O)Oc1ccccc1 . Reported Tmax?
1 h

* * *

# assay-procedure: Example 4 Group B: plasma pharmacokinetics in genotype 1 HCV-infected subjects (LC/MS/MS)
# conditions: human, in vivo, 300 mg single dose, fasted, mean ± SD, read-out: t1/2 of Compound I (converted)
attribute-measured: half-life (h)
Numbers only, in h.

What half-life value was documented for this molecule, CC(C)OC(=O)[C@@H](C)N[P@@](=O)(OC[C@H]1O[C@@H](n2ccc(=O)[nH]c2=O)[C@](C)(Cl)[C@@H]1O)Oc1ccccc1 ?
1.58

* * *

# assay-procedure: Example 4 Group A: plasma pharmacokinetics in healthy volunteers (LC/MS/MS)
# conditions: human, in vivo, 50 mg, 50 mg single dose, fasted, median, read-out: Tmax of Compound I
attribute-measured: Tmax (h)
Numbers only, in h.

State the recorded Tmax for this entry: CC(C)OC(=O)[C@@H](C)N[P@@](=O)(OC[C@H]1O[C@@H](n2ccc(=O)[nH]c2=O)[C@](C)(Cl)[C@@H]1O)Oc1ccccc1
1

* * *

# assay-procedure: Example 4 Group A: plasma pharmacokinetics in healthy volunteers (LC/MS/MS)
# conditions: human, in vivo, 300 mg, 300 mg QD, D1, fasted, mean ± SD, read-out: AUC∞ of Compound I
attribute-measured: AUC(0-inf) (ng·h/mL)
One number for each entry, in ng·h/mL.

Item under review: CC(C)OC(=O)[C@@H](C)N[P@@](=O)(OC[C@H]1O[C@@H](n2ccc(=O)[nH]c2=O)[C@](C)(Cl)[C@@H]1O)Oc1ccccc1 . Reported AUC(0-inf)?
2170

* * *

# assay-procedure: Example 4 Group A: plasma pharmacokinetics in healthy volunteers (LC/MS/MS)
# conditions: human, in vivo, 150 mg, 150 mg single dose, fasted, mean ± SD, read-out: t1/2 of Compound I (converted)
# Description: Six sequential cohorts of 8 health volunteers per cohort were randomized via a computer-generated randomization list in the ratio of 2:6. […] Plasma samples were obtained up to 120 hours after dosing and the levels of Compound I and its Nucleoside metabolite were measured by using validated LC/MS/MS methodology. […]
attribute-measured: half-life
# output: number + unit

Need half-life, item CC(C)OC(=O)[C@@H](C)N[P@@](=O)(OC[C@H]1O[C@@H](n2ccc(=O)[nH]c2=O)[C@](C)(Cl)[C@@H]1O)Oc1ccccc1 [Compound I]
1.16 h

* * *

# assay-procedure: Example 4 Group A: plasma pharmacokinetics in healthy volunteers (LC/MS/MS)
# conditions: human, in vivo, 300 mg, 300 mg single dose, fasted, median, read-out: Tmax of Compound I
attribute-measured: Tmax

What measured Tmax goes with CC(C)OC(=O)[C@@H](C)N[P@@](=O)(OC[C@H]1O[C@@H](n2ccc(=O)[nH]c2=O)[C@](C)(Cl)[C@@H]1O)Oc1ccccc1 [Compound I] ?
30 min

* * *

# assay-procedure: Example 4 Group A: plasma pharmacokinetics in healthy volunteers (LC/MS/MS)
# conditions: human, in vivo, 150 mg, 150 mg single dose, fasted, mean ± SD, read-out: AUC∞ of Compound I
attribute-measured: AUC(0-inf) (ng·h/mL)
Give bare numbers, in ng·h/mL.

# query: AUC(0-inf) of entry CC(C)OC(=O)[C@@H](C)N[P@@](=O)(OC[C@H]1O[C@@H](n2ccc(=O)[nH]c2=O)[C@](C)(Cl)[C@@H]1O)Oc1ccccc1 [Compound I]
1110

* * *

# assay-procedure: Example 4 Group B: plasma pharmacokinetics in genotype 1 HCV-infected subjects (LC/MS/MS)
# conditions: human, in vivo, 300 mg single dose, fasted, mean ± SD, read-out: AUC∞ of Compound I
attribute-measured: AUC(0-inf) (ng·h/mL)
Numbers only, in ng·h/mL.

Can you look up the measured AUC(0-inf) of CC(C)OC(=O)[C@@H](C)N[P@@](=O)(OC[C@H]1O[C@@H](n2ccc(=O)[nH]c2=O)[C@](C)(Cl)[C@@H]1O)Oc1ccccc1 for me?
818

* * *

# assay-procedure: Example 4 Group A: plasma pharmacokinetics in healthy volunteers (LC/MS/MS)
# conditions: human, in vivo, 10 mg, 10 mg single dose, fasted, median, read-out: Tmax of Compound I
attribute-measured: Tmax (min)
One number for each entry, in min.

// returns reported Tmax for input CC(C)OC(=O)[C@@H](C)N[P@@](=O)(OC[C@H]1O[C@@H](n2ccc(=O)[nH]c2=O)[C@](C)(Cl)[C@@H]1O)Oc1ccccc1
48

* * *

# assay-procedure: Example 4 Group A: plasma pharmacokinetics in healthy volunteers (LC/MS/MS)
# conditions: human, in vivo, 300 mg, 300 mg QD, D7, fasted, mean ± SD, read-out: Cmax of Compound I
# Method: Six sequential cohorts of 8 health volunteers per cohort were randomized via a computer-generated randomization list in the ratio of 2:6. […] Plasma samples were obtained up to 120 hours after dosing and the levels of Compound I and its Nucleoside metabolite were measured by using validated LC/MS/MS methodology. […]
attribute-measured: Cmax
Show the value, then the unit it is measured in.

I am curious: what Cmax value has been reported for CC(C)OC(=O)[C@@H](C)N[P@@](=O)(OC[C@H]1O[C@@H](n2ccc(=O)[nH]c2=O)[C@](C)(Cl)[C@@H]1O)Oc1ccccc1 ?
1280 ng/mL

* * *

# assay-procedure: Example 4 Group B: plasma pharmacokinetics in genotype 1 HCV-infected subjects (LC/MS/MS)
# conditions: human, in vivo, 50 mg single dose, fasted, mean ± SD, read-out: Cmax of Compound I
attribute-measured: Cmax (ng/mL)
Numbers only, in ng/mL.

Find the recorded Cmax belonging to CC(C)OC(=O)[C@@H](C)N[P@@](=O)(OC[C@H]1O[C@@H](n2ccc(=O)[nH]c2=O)[C@](C)(Cl)[C@@H]1O)Oc1ccccc1 and report it.
91.9

* * *

# assay-procedure: Example 4 Group A: plasma pharmacokinetics in healthy volunteers (LC/MS/MS)
# conditions: human, in vivo, 300 mg, 300 mg QD, D1, fasted, mean ± SD, read-out: Cmax of Compound I
attribute-measured: Cmax (ng/mL)
One number for each entry, in ng/mL.

Sample CC(C)OC(=O)[C@@H](C)N[P@@](=O)(OC[C@H]1O[C@@H](n2ccc(=O)[nH]c2=O)[C@](C)(Cl)[C@@H]1O)Oc1ccccc1 — what was its Cmax?
1290

* * *

# assay-procedure: Example 4 Group A: plasma pharmacokinetics in healthy volunteers (LC/MS/MS)
# conditions: human, in vivo, 300 mg, 300 mg single dose, fasted, mean ± SD, read-out: Cmax of Compound I
attribute-measured: Cmax (ng/mL)
Numbers only, in ng/mL.

Suppose we examine the compound CC(C)OC(=O)[C@@H](C)N[P@@](=O)(OC[C@H]1O[C@@H](n2ccc(=O)[nH]c2=O)[C@](C)(Cl)[C@@H]1O)Oc1ccccc1 [Compound I] ; what Cmax value has been reported?
924

* * *

# assay-procedure: Example 4 Group A: plasma pharmacokinetics in healthy volunteers (LC/MS/MS)
# conditions: human, in vivo, 50 mg, 50 mg single dose, fasted, mean ± SD, read-out: t1/2 of Compound I (converted)
attribute-measured: half-life (h)
One number for each entry, in h.

Param item = CC(C)OC(=O)[C@@H](C)N[P@@](=O)(OC[C@H]1O[C@@H](n2ccc(=O)[nH]c2=O)[C@](C)(Cl)[C@@H]1O)Oc1ccccc1 [Compound I] ; retrieve measured half-life.
1.04

* * *

# assay-procedure: Example 4 Group A: plasma pharmacokinetics in healthy volunteers (LC/MS/MS)
# conditions: human, in vivo, 300 mg, 300 mg QD, D1, fasted, median, read-out: Tmax of Compound I
attribute-measured: Tmax (min)
Numbers only, in min.

Bench note: what Tmax did CC(C)OC(=O)[C@@H](C)N[P@@](=O)(OC[C@H]1O[C@@H](n2ccc(=O)[nH]c2=O)[C@](C)(Cl)[C@@H]1O)Oc1ccccc1 [Compound I] show?
48
